# experimentSummary: MTT cell viability assay
# Format: cell-based
# settings: rat, H9c2 cells, read-out: cell viability compared to the control
quantityName: viability at 12 h, 20 µM (%)
Numeric only. Scale: %

Asked: Which viability at 12 h, 20 µM is listed for COCc1ccc(-c2ccc3c(=O)c(O)c(-c4ccc(OC)c(OC)c4)oc3c2)cc1 [6d] ?
Given back: 46

---

melting point listing for selected molecules.

COCc1ccc(-c2ccc3c(=O)c(O)c(-c4cc(OC)c(OC)c(OC)c4)oc3c2)cc1 :: 208.1 to 209.2 °C

Asked: Which melting point is listed for COCc1ccc(-c2ccc3oc(-c4ccc(OC)c(OC)c4)c(O)c(=O)c3c2)cc1 ?
Given back: 192.8 to 194.3 °C

Asked: Which melting point is listed for COc1cc(-c2oc3cc(-c4cccc(N(C)C)c4)ccc3c(=O)c2O)cc(OC)c1OC ?
Given back: 179.5 to 181.8 °C

Asked: Which melting point is listed for COCc1ccc(-c2ccc3c(=O)c(O)c(-c4ccc(OC)c(OC)c4)oc3c2)cc1 ?
Given back: 212.1 to 214.2 °C

Asked: Which melting point is listed for COc1ccc(-c2oc3ccc(-c4cccc(N(C)C)c4)cc3c(=O)c2O)cc1OC ?
Given back: 187.7 to 188.8 °C
